# SYSTEM UNDER TEST: mouse TMEM16A mutant R515A (Mus musculus, UniProt Q8BHY3, R515A)
# Construct: expressed in transfected cells; host or cells: HEK293T
# Sequence (Q8BHY3 1-960 R515A): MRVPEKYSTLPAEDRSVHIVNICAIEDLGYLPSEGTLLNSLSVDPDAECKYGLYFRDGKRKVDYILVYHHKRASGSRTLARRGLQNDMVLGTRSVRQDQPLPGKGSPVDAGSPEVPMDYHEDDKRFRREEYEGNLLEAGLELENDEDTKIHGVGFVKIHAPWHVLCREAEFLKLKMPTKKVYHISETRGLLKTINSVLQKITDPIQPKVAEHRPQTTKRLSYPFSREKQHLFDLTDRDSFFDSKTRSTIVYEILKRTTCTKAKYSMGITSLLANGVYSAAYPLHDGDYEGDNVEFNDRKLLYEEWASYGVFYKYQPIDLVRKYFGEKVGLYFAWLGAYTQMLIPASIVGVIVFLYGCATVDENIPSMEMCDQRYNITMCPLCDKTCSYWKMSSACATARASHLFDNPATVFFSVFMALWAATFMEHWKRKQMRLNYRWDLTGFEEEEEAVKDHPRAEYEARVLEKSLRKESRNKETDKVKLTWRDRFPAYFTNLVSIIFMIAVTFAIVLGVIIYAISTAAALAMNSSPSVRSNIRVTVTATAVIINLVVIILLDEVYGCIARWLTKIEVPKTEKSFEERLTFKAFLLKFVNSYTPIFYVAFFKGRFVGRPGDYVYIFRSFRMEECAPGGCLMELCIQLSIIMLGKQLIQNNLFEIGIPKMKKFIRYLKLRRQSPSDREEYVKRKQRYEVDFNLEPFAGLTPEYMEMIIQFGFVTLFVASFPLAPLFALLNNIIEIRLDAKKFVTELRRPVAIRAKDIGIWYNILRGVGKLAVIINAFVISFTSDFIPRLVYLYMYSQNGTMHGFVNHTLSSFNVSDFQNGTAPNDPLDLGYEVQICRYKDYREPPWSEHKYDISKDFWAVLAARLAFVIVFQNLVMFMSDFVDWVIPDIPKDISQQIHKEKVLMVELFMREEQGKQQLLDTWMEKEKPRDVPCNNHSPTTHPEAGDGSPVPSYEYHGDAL
# ASSAY REMARKS: Inside-out patch recording of 1PBC block, mutant R515A
# Format: cell-based
# COND: 140 mV; 4 µM Ca2+

MOLECULE SMILES: N#Cc1c(C(F)(F)F)cc(O)n2c1nc1ccccc12
UNIT ABBREVIATION: µM
IC50: 86.1
